Test system: MOLT-4 leukemia
Test: NCI-60 one-dose screen, 48 h
Conditions: 10 µM unless noted
About 83,000 compounds went through this panel and 20% of them were active in at least one assay; those are over-represented in the sample as a whole. Activity calls are given as the source filed them. Rule for the calls: active = growth percent below 10; inactive = the rest.
Pick one and only one: YES = active, NO = inactive

Prompt line: Per the records of this test, what outcome belongs to Fc1ccc(Nc2nc(NCCNc3ccnc4cc(Cl)ccc34)nc(N3CCOCC3)n2)cc1 ?
Response line: NO

Prompt line: Lab log entry: COc1ccc(C(=O)N2NC(=O)/C(=C/c3ccccc3F)N=C2c2ccccc2)cc1 — outcome as called in the assay?
Response line: NO

Prompt line: Record request — test call for CN(C)c1oc(C2OC2c2ccccc2)nc1C#N (stereo unspecified)
Response line: NO

Prompt line: Assay outcome for Brc1cccc(-c2cc(-c3ccc4nccnc4c3)[nH]n2)c1 : what was it?
Response line: NO

Prompt line: Which outcome was entered for the molecule CCN(CC)c1ccc2[nH]c3c(C(N)=O)cc(=O)c(=O)c=3oc2c1 in this test?
Response line: YES

Prompt line: State the result this test recorded for c1cc2[nH]ncc2cc1-c1nc2ccc3[nH]ncc3c2c2c1CCC2 .
Response line: NO

Prompt line: Would you mind telling me which call this test gave COc1cc(-c2nn(-c3cccc(NC(=O)Nc4ccc(Cl)c(C(F)(F)F)c4)c3)cc2-c2ccncc2)ccc1Cl ?
Response line: YES

Prompt line: Call for entry Cc1ccc(-c2cc3nc(C(Cl)Cl)nc(-c4cccnc4)n3n2)cc1 :
Response line: NO

Prompt line: Test call, this molecule: O=c1ccn(-c2ncnc3nc[nH]c23)cc1
Response line: NO

Prompt line: What classification did CCn1c2ccccc2c2cc(NC(=O)Nc3ccc([N+](=O)[O-])cc3C)ccc21 end up with in this test?
Response line: NO

Prompt line: What did the test return for Cc1ccc(-c2nc(C(Cl)Cl)n3nc(-c4ccccc4)cc3n2)cc1 ?
Response line: NO

Prompt line: // outcome(item) with item = N/C(=N\C(N)=N\c1nc2ccccc2s1)c1ccncc1
Response line: NO

Prompt line: Could you please tell me the result logged for CN(C)CCOC(=O)Nc1ccccc1Cl in this assay?
Response line: NO

Prompt line: In this assay, the call recorded for COc1cc2c(=O)n(C3CCCCCC3)c3c4cc[nH]c4ncc3c2cc1OC was what?
Response line: NO

Prompt line: Kindly provide the recorded test outcome for the following molecule: NC1N=C(SCC(=O)N2CCN(c3cc4c(cc3F)c(=O)c(C(=O)O)cn4C3CC3)CC2)NC(=O)/C1=C/c1ccc(Cl)cc1 (stereo unspecified)
Response line: NO

Prompt line: # fetch the recorded call for Cc1ccc(-c2nc(C#N)c(S(=O)(=O)n3nc(-c4ccccc4)cc3N)o2)cc1 here
Response line: YES

Prompt line: Query: recorded result category for CNc1ccc(Br)c2c1C(=O)c1ccccc1C2=O in this test
Response line: NO

Prompt line: So what was the verdict on COc1ccc(/C=N\NC(=O)CN2CCN(c3cc4c(cc3F)c(=O)c(C(=O)N/N=C/c3ccc(OC)c(OC)c3)cn4C3CC3)CC2)cc1OC in this test?
Response line: YES

Prompt line: Outcome logged for CCN(CC)CCCNc1nccc2ccc(Cl)cc12 in this assay:
Response line: NO

Prompt line: I would be grateful if you could indicate the recorded call for COC(=O)c1cc2cc(-c3ccc(OC)cc3)cnc2[nH]1 .
Response line: NO

Prompt line: Name the outcome recorded for OCc1ncc(-c2ccccc2)s1 in the assay.
Response line: NO

Prompt line: Recorded test outcome, item COc1ccc(C2CC(c3ccc(OC)cc3OC)=NN2c2ccc(S(N)(=O)=O)cc2)cc1 (stereo unspecified)
Response line: NO

Prompt line: Recorded test call requested for CN(CCCCN(C[C@H]1Cc2ncccc2CN1)[C@H]1CCCc2cccnc21)C1CCC(F)(F)CC1
Response line: NO

Prompt line: So what was the verdict on N=C(N)c1ccc(-c2ccc(-c3ccc4ccccc4c3)s2)cc1 in this test?
Response line: NO

Prompt line: Lab log entry: Cc1ccc2[nH]c(=O)c3c(c2c1)Oc1ncn2nc(-c4ccco4)nc2c1C3c1ccc(Cl)cc1 (stereo unspecified) — outcome as called in the assay?
Response line: NO

Prompt line: Please state the recorded outcome for this molecule: COc1ccc(/C=C2\CN(Cc3cn(CCNc4ccnc5cc(Cl)ccc45)nn3)C/C(=C\c3ccc(OC)c(OC)c3)C2=O)cc1OC
Response line: YES

Prompt line: Can you look up the reported call for O=C1CCCCC1(c1ccccc1)c1ccccc1 for me?
Response line: NO

Prompt line: For O=S(=O)(NCCCNc1nccc(-n2ccc3cccnc32)n1)c1cccc(C(F)(F)F)c1 , which call appears in the assay record?
Response line: NO

Prompt line: Please let me know the test result on file for COc1ccc(C2=C(c3cc(OC)c(OC)c(OC)c3)C(=O)CC2)cc1 .
Response line: NO

Prompt line: Answer briefly: the call reported for O=c1cc(Cc2ccc([N+](=O)[O-])cc2)[nH]c(=O)[nH]1 in this assay.
Response line: NO

Prompt line: Just curious, what result did O=C(C1=Cc2cc3ccccc3n2Cc2cnnn21)c1ccccc1 get here?
Response line: NO

Prompt line: Please indicate how the test categorized Nc1nc(Nc2cc(Cl)cc(Cl)c2)nn1S(=O)(=O)c1ccc2ccccc2c1 .
Response line: NO

Prompt line: Could you please tell me the result logged for COc1ccc(Nc2[nH]n3c(=O)cc(-c4ccccc4)nc3c2C(=O)Nc2ccc(C)cc2)c(OC)c1 in this assay?
Response line: NO

Prompt line: What was the test verdict on COc1ccncc1S(=O)(=O)NC(=O)Nc1ccc(Cl)c(Cl)c1 ?
Response line: NO

Prompt line: What is the recorded call for this molecule in the test? Cc1cc(N/N=C/c2nc(-c3ccc(Br)cc3)oc2C)c2cc(Br)ccc2n1
Response line: YES

Prompt line: Dear colleague, could you share the recorded outcome for CCOC(=O)NNC(=S)Nc1ccccc1 when you have a moment?
Response line: NO

Prompt line: Assay result, entry CCO/C=N/C1=C(C#N)C(c2ccc(Cl)cc2)c2c(c3ccccc3n(C)c2=O)O1 (stereo unspecified) — outcome?
Response line: NO

Prompt line: Kindly provide the recorded test outcome for the following molecule: CC[N+](CC)=c1cc2oc3cc(N(C)C)ccc3nc-2cc1C
Response line: NO

Prompt line: Outcome? CN1CCN(Cc2ccc(NC(=O)c3nc4ccc5[nH]ncc5c4c4c3CCC4)cc2C(F)(F)F)CC1
Response line: YES

Prompt line: Recorded test call requested for C=CCn1c2ccccc2c2c3c(c4c5ccccc5n(CC=C)c4c21)C(=O)N(O)C3=O
Response line: YES

Prompt line: Tell me the recorded outcome of this test for Fc1ccc(-c2nc(-c3nc4ncccc4[nH]3)cc3c2[nH]c2ccccc23)cc1F .
Response line: NO

Where do the numbers come from? From PubChem BioAssay (NCI).
